Origin of measurements: the RNAGym collection of RNA variant scans (doi:10.1073/pnas.2313332121)

B1: TPR 5TU (parent)
chain: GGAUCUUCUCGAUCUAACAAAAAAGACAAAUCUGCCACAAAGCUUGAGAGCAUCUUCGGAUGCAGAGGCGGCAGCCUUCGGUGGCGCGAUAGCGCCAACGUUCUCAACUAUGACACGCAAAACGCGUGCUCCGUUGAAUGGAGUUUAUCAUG

variants of: B1; experiment: polymerase ribozyme fitness, log enrichment relative to wild type (log ratio); higher = more active; in vitro selection for triplet polymerase activity
Fewer inactive variants are shown than the library holds.
Would you kindly list polymerase ribozyme fitness (log ratio) for each of these variants?
Numbers only.

Guide cases for polymerase ribozyme fitness (log ratio), answers given:
C116A U151C	-4.09
C18U A21C G141A	0.0565
G48C G84A A121G U134A G143A	-3.91

Here are 2 variants. What values of polymerase ribozyme fitness (log ratio) were reported for them?
1. G59A C79U
2. G50C G141U

-3.86
-2.26

Okay, here is my list. What is polymerase ribozyme fitness (log ratio) for each of these?
1. A49G
2. A20G G59C G70A
3. G92A A115C
4. C43G G86U U139C
5. U15G G84A

1: -0.331; 2: -4.05; 3: -3.48; 4: -4.11; 5: -1.57

Reported polymerase ribozyme fitness (log ratio) for A52G A107U : what is it?
-3.56
